Answer each item with its documented pEC50.
System: U937 cells
test_protocol: EC50 of necroptosis inhibition in U937 cells (TSZ-induced, CellTiter-Glo)
Format: cell-based
test_context: Homo sapiens, U-937; TSZ (hTNF-α, SM-164, Z-VAD-FMK) 20 hours; 10 concentration points; read-out: EC50 intervals of necroptosis inhibition in U937 cells
pEC50: −log10 of the molar value.

| compound | pEC50 |
| --- | --- |
| CN1C(=O)[C@@H](NC(=O)C(=O)NCCc2ccccc2)COc2ccc(C#CCN3C(=O)CCC3=O)cc21 [Example 84] | > 7.00 |

Could you report pEC50 for every entry in the following list?
1. C[C@H](NC(=O)C(=O)N[C@H]1COc2ccc(C#CCN3CC[C@H](O)C3)cc2N(C)C1=O)c1ccccc1 [Example 129]
2. CN1C(=O)[C@@H](NC(=O)C(=O)NCCc2ccccc2)COc2ccc(C#CCCN)cc21 [Example 50]
3. CN1C(=O)[C@@H](NC(=O)C(=O)NCCc2cccc(F)c2)COc2ccc(C#CCCO)cc21 [Example 34]
4. C[C@@H](NC(=O)C(=O)N[C@H]1COc2ccc(C#CCN3CC[C@@H](O)C3)cc2N(C)C1=O)c1ccccc1 [Example 128]

Response:
1. 6.30 to 7.00
2. > 7.00
3. > 7.00
4. > 7.00
